# target.or.system: human EGF-R (Homo sapiens, UniProt P00533)
# Construct: packaging line GP+E86)
# Sequence (P00533 25-1210): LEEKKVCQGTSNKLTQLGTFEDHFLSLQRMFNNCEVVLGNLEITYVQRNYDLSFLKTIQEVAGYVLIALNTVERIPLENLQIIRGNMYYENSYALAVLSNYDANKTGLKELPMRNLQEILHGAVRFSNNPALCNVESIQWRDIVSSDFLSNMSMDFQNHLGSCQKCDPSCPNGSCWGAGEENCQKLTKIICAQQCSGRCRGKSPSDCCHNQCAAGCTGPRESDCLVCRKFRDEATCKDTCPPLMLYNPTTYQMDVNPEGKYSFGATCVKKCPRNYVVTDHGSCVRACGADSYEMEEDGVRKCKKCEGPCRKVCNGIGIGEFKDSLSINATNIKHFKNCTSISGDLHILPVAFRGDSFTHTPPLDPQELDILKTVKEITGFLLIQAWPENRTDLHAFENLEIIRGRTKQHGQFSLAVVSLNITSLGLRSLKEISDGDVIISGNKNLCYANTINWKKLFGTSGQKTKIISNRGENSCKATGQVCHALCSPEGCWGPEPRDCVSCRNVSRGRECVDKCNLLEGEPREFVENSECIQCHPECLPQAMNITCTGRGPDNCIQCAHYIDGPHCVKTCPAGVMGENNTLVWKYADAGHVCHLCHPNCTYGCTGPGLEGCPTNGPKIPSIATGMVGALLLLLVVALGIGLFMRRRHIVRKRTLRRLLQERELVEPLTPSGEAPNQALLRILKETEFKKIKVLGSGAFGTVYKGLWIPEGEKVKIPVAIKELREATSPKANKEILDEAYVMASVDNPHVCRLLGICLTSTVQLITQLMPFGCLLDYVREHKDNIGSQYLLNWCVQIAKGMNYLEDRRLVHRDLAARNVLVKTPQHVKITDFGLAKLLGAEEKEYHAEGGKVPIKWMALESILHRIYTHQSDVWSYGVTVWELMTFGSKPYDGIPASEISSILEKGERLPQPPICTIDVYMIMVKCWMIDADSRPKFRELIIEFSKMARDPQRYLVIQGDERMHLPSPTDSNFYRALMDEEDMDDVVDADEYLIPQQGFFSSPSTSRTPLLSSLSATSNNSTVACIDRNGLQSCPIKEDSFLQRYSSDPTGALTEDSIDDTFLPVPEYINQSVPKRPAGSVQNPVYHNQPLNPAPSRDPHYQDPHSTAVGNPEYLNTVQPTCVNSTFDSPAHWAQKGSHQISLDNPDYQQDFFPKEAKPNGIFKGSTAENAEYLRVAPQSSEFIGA
# experimental.details: Inhibition of EGF-dependent proliferation of F/L-HERc cells (Cell Titer 96 assay)
# test.parameters: F/L-HERc cells (murine IL-3-dependent line expressing human EGF-R), stimulated with EGF 20 ng/ml, 48 hours at 37° C.
value.type: IC50 (nM)

Some molecules with known IC50 results, for comparison:
{"molecule": "CCOC(=O)CN1CCC(CCNc2ncc3ncnc(Nc4ccc(F)c(Cl)c4)c3n2)CC1", "target.or.system": "human EGF-R (Homo sapiens, UniProt P00533)", "meas.value": 1030}
{"molecule": "COC(=O)CN1CCC(Nc2ncc3ncnc(Nc4cccc(Cl)c4)c3n2)CC1", "target.or.system": "human EGF-R (Homo sapiens, UniProt P00533)", "meas.value": 25}
{"molecule": "COC(=O)CN1CCC(Nc2ncc3ncnc(Nc4cc(Br)c(N)c(Br)c4)c3n2)CC1", "target.or.system": "human EGF-R (Homo sapiens, UniProt P00533)", "meas.value": 77}
{"molecule": "COC(=O)CN1CCC(Nc2ncc3ncnc(Nc4ccc5[nH]ccc5c4)c3n2)CC1", "target.or.system": "human EGF-R (Homo sapiens, UniProt P00533)", "meas.value": 26}
{"molecule": "CCOC(=O)C1CCN(CCNc2ncc3ncnc(Nc4ccc(F)c(Cl)c4)c3n2)CC1", "target.or.system": "human EGF-R (Homo sapiens, UniProt P00533)", "meas.value": 1150}

(1) COC(=O)C(C(=O)OC)N1CCC(Nc2ncc3ncnc(Nc4cccc(Br)c4)c3n2)CC1
(2) O=C(O)CN1CCN(c2ncc3ncnc(Nc4ccc(F)c(Cl)c4)c3n2)CC1
Lab note: check whether 1 or 2 has the lower measured IC50. Refer to your chosen item by its label in the answer.
1
(1: 20 nM, 2: 2300 nM)

(P) COC(=O)CCN(C)C1CCN(c2ncc3ncnc(Nc4ccc(F)c(Cl)c4)c3n2)CC1
(Q) COC(=O)CN1CCCC(Nc2ncc3ncnc(Nc4cccc(Br)c4)c3n2)C1 (stereo not shown)
(R) CCOC(=O)CCN1CCC(N2CCN(c3ncc4ncnc(Nc5ccc(F)c(Cl)c5)c4n3)CC2)CC1
Rank the 3 molecules: largest IC50 first, smallest last. A ranking is expressed here by listing the labels in the requested order.
P, R, Q
(P: 1760 nM, R: 810 nM, Q: 17 nM)

(I) COC(=O)CN1CCC(Nc2ncc3ncnc(Nc4cc(Cl)c(N)c(Cl)c4)c3n2)CC1
(II) O=C(O)C1CCN(CCNc2ncc3ncnc(Nc4ccc(F)c(Cl)c4)c3n2)CC1
(III) O=C(O)CN1CCC(CCNc2ncc3ncnc(Nc4ccc(F)c(Cl)c4)c3n2)CC1
(IV) COC(=O)CN(C)[C@H]1CC[C@H](Nc2ncc3ncnc(Nc4ccc(F)c(Cl)c4)c3n2)CC1
Order the records, beginning with the lowest IC50 and ending with the highest. A ranking is expressed here by listing the labels in the requested order.
I, IV, III, II
(I: 21 nM, IV: 60 nM, III: 820 nM, II: 2510 nM)

(P) COC(=O)CN1CCC(Nc2ncc3ncnc(Nc4ccc(F)c(Cl)c4)c3n2)CC1
(Q) CCOC(=O)CN(CC(=O)OCC)[C@H]1CC[C@H](Nc2ncc3ncnc(Nc4ccc(F)c(Cl)c4)c3n2)CC1
Which one would you say has the larger IC50 value: P , or Q ? Refer to your chosen item by its label in the answer.
Q

====

Structures can show the parent of a compound that is named as a salt.
value.type: melting point

Some molecules with known melting point results, for comparison:
{"molecule": "COC(=O)CN(C)[C@H]1CC[C@H](Nc2ncc3ncnc(Nc4ccc(F)c(Cl)c4)c3n2)CC1", "meas.value": "131 to 134 °C"}
{"molecule": "O=C(O)C1CCN(CCNc2ncc3ncnc(Nc4ccc(F)c(Cl)c4)c3n2)CC1", "meas.value": "190 °C (dec.)"}
{"molecule": "CCOC(=O)CN1CCC(Nc2ncc3ncnc(Nc4ccc(F)c(Cl)c4)c3n2)CC1", "meas.value": "136 to 138 °C"}
{"molecule": "COC(=O)CN1CCC(Nc2ncc3ncnc(Nc4cccc(C)c4)c3n2)CC1", "meas.value": "164 °C"}
{"molecule": "O=C(CN1CCC(Nc2ncc3ncnc(Nc4ccc(F)c(Cl)c4)c3n2)CC1)OC1CCCCC1", "meas.value": "184 to 186 °C"}
{"molecule": "CN(CCC(=O)O)C1CCN(c2ncc3ncnc(Nc4ccc(F)c(Cl)c4)c3n2)CC1", "meas.value": "139 to 165 °C (dec.)"}
{"molecule": "CN(CCCC(=O)O)[C@H]1CC[C@H](Nc2ncc3ncnc(Nc4ccc(F)c(Cl)c4)c3n2)CC1", "meas.value": "217 to 221 °C"}
{"molecule": "COC(=O)CN1CCC(Nc2ncc3ncnc(Nc4ccc5[nH]ccc5c4)c3n2)CC1", "meas.value": "167 °C"}
{"molecule": "O=C1CN(C2CCC(Nc3ncc4ncnc(Nc5ccc(F)c(Cl)c5)c4n3)CC2)CCO1 (stereo not drawn)", "meas.value": "202 to 204 °C"}
{"molecule": "O=C(O)CN[C@H]1CC[C@H](Nc2ncc3ncnc(Nc4ccc(F)c(Cl)c4)c3n2)CC1", "meas.value": "201 to 205 °C (dec.)"}

Name the recorded melting point of the molecule listed here: CC(C)OC(=O)CN1CCC(Nc2ncc3ncnc(Nc4ccc(F)c(Cl)c4)c3n2)CC1
175 to 177 °C

Name the recorded melting point of the molecule listed here: COC(=O)CC(C(=O)OC)N1CCC(Nc2ncc3ncnc(Nc4cccc(Br)c4)c3n2)CC1 (stereo not drawn) (as salt: maleate)
193 °C

Name the recorded melting point of the molecule listed here: O=C(O)CCCN1CCC(Nc2ncc3ncnc(Nc4ccc(F)c(Cl)c4)c3n2)CC1
145 to 165 °C

Name the recorded melting point of the molecule listed here: O=C(O)CN1CCC(CCNc2ncc3ncnc(Nc4ccc(F)c(Cl)c4)c3n2)CC1
246 to 249 °C (dec.)

Name the recorded melting point of the molecule listed here: CCOC(=O)C1CCN(CCNc2ncc3ncnc(Nc4ccc(F)c(Cl)c4)c3n2)CC1
137 to 139 °C

Name the recorded melting point of the molecule listed here: CCOC(=O)CN1CCN(CC2CCN(c3ncc4ncnc(Nc5ccc(F)c(Cl)c5)c4n3)CC2)CC1
145 to 149 °C

====

Reported melting point values follow for various compounds

{"compound": "COC(=O)CCNC1(C)CCN(c2ncc3ncnc(Nc4ccc(F)c(Cl)c4)c3n2)CC1", "value.type": "melting point", "meas.value": "134 to 135 °C"}
{"compound": "COC(=O)CCCN1CCC(Nc2ncc3ncnc(Nc4ccc(F)c(Cl)c4)c3n2)CC1", "value.type": "melting point", "meas.value": "135 to 137 °C"}
{"compound": "COC(=O)CCC1CCN(C2CCN(c3ncc4ncnc(Nc5ccc(F)c(Cl)c5)c4n3)C2)CC1 (stereo not drawn)", "value.type": "melting point", "meas.value": "166 to 168 °C"}

Name the recorded melting point of the compound listed here: O=C(O)CN1CCN(c2ncc3ncnc(Nc4ccc(F)c(Cl)c4)c3n2)CC1
240 °C (dec.)

Name the recorded melting point of the compound listed here: COC(=O)C1CCCN1CC1CCN(c2ncc3ncnc(Nc4ccc(F)c(Cl)c4)c3n2)CC1 (stereo not drawn)
151 to 154 °C

Name the recorded melting point of the compound listed here: COC(=O)CCCN(C)[C@H]1CC[C@H](Nc2ncc3ncnc(Nc4ccc(F)c(Cl)c4)c3n2)CC1
99 to 102 °C

Name the recorded melting point of the compound listed here: O=C(O)CCN1CCN(c2ncc3ncnc(Nc4ccc(F)c(Cl)c4)c3n2)CC1
111 to 145 °C

Name the recorded melting point of the compound listed here: COC(=O)CCN1CCC(Nc2ncc3ncnc(Nc4ccc(F)c(Cl)c4)c3n2)CC1
136 to 137 °C

Name the recorded melting point of the compound listed here: COC(=O)CN1CCC(Nc2ncc3ncnc(Nc4ccc(F)c(Cl)c4)c3n2)CC1
162 to 164 °C

Name the recorded melting point of the compound listed here: O=C(O)CCNCC1CCN(c2ncc3ncnc(Nc4ccc(F)c(Cl)c4)c3n2)CC1
209 to 214 °C

Name the recorded melting point of the compound listed here: CC1(NCCC(=O)O)CCN(c2ncc3ncnc(Nc4ccc(F)c(Cl)c4)c3n2)CC1
157 to 160 °C

Name the recorded melting point of the compound listed here: COC(=O)CN1CCC(Nc2ncc3ncnc(Nc4cc(Br)c(N)c(Br)c4)c3n2)CC1
167 °C

Name the recorded melting point of the compound listed here: COC(=O)CN(CC(=O)OC)C1CCC(N(C)c2ncc3ncnc(Nc4ccc(F)c(Cl)c4)c3n2)CC1 (stereo not drawn)
162 to 164 °C

Name the recorded melting point of the compound listed here: O=C(O)CN(CC(=O)O)[C@H]1CC[C@H](Nc2ncc3ncnc(Nc4ccc(F)c(Cl)c4)c3n2)CC1
245 °C (dec.)

Name the recorded melting point of the compound listed here: O=C(O)CN1CCN(CCNc2ncc3ncnc(Nc4ccc(F)c(Cl)c4)c3n2)CC1
240 to 242 °C (dec.)
